Measured on: Casp9 (Homo sapiens, UniProt P55211)
Sequence (P55211 1-315 limits assumed): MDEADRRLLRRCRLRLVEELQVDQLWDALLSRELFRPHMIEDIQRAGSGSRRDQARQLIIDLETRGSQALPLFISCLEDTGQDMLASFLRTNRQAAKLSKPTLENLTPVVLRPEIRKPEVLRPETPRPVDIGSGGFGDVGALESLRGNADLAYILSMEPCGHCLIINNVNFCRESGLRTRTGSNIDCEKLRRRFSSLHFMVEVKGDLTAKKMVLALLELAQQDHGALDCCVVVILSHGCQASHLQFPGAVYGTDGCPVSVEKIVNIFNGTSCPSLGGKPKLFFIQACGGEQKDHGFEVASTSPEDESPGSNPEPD
Sequence (P55211 331-416 limits assumed): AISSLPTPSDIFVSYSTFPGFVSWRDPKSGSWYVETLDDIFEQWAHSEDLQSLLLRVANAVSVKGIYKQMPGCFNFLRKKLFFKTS
pKi: −log10 of the molar value. *1 amine or outer side, *2 acyl side, *3 side chain or, on linkers, in order; H or OH if unused. Where a SMILES comes first, the peptide text is derived from it. [ ]: non-standard residue; d: D form. X1 = Cc1ccc2c(c1)CCN([*:1])[C@@H]2C(=O)[*:2]
pKi values, listed per item

compound="CC(=O)N[C@H](C(=O)N[C@@H](CC(=O)O)C(=O)N[C@H](C(=O)N1CCc2cc(C)ccc2[C@H]1C(=O)N[C@H](C=O)CC(=O)O)C(C)C)C(C)C [Compound 2b] (Ac-VDV[X1]D-aldehyde)" measured_parameter=pKi value="< 4.50"

Record Cc1ccc2c(c1)CCN(C(=O)[C@@H](NC(=O)[C@H](CCCC(=O)O)NC(=O)[C@@H]1Cc3ccccc3N1)C(C)C)[C@@H]2C(=O)N[C@H](C#N)CC(=O)O [Compound 1] : what is its pKi with Casp9 (Homo sapiens, UniProt P55211)? < 4.50
